Source of measurements: paper doi:10.1101/2025.03.18.644008v1

Reported pEC50 is given for each of the following compounds.
# measured.target: LPA3 receptor (Homo sapiens, UniProt Q9UBY5)
# Sequence (Q9UBY5 1-353): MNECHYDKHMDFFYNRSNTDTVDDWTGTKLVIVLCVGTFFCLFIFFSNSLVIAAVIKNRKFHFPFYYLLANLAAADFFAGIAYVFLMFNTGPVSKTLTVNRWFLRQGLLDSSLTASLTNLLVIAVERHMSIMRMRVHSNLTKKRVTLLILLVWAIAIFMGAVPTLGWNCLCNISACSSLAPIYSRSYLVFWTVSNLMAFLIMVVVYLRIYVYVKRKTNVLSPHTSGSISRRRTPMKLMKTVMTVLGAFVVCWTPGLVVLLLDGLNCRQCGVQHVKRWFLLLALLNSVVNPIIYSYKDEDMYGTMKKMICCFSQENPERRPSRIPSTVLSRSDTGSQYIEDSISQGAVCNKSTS
# protocol.description: intracellular calcium, Fura-2 AM, induced HEK […] Flp-In TREx cells
pEC50: −log10 of the molar value.
property.name: pEC50

[
  {
    "smiles.string": "Fc1ccc([C@@H]2CCNC[C@H]2COc2ccc3c(c2)OCO3)cc1",
    "measured.target": "LPA3 receptor (Homo sapiens, UniProt Q9UBY5)",
    "value": "~4.52"
  },
  {
    "smiles.string": "CCCCCCCC/C=C\\CCCCCCCC(=O)OC[C@@H](COP(O)(O)=S)OC",
    "measured.target": "LPA3 receptor (Homo sapiens, UniProt Q9UBY5)",
    "value": "~7.22"
  }
]
